- System: SK-MEL-2 melanoma
- run_description: NCI tumour cell line growth inhibition, 48 h
*1 amine or outer side, *2 acyl side, *3 side chain or, on linkers, in order; H or OH if unused. Where a SMILES comes first, the peptide text is derived from it. Bridges are numbered along the chain shown (N, C = ends). [ ]: non-standard residue; d: D form. The star is where a group is joined. ξ: configuration not given here. X34 = O=C(C(CCCCNO[*:3])N[*:1])[*:2]; Fmoc = O=C(OCC1c2ccccc2-c2ccccc21)*; ξW = NC(Cc1c[nH]c2ccccc12)C(=O)O; ξP = O=C(O)C1CCCN1
metric_name: TGI

Query block: # query: TGI | item O=C(O)CCCCC(CCSCc1ccccc1)SCc1ccccc1 (centres undefined) | system: SK-MEL-2 melanoma
Result block: 67.6 µM

Query block: Notebook: pull reported TGI for SK-MEL-2 melanoma, entry COc1ccc(/C(=C2\O[C@@H]([C@H]3COC(C)(C)O3)[C@H]3OC(C)(C)O[C@@H]23)c2cc(OC)c(OC)c(OC)c2)cc1O
Result block: > 100 µM

Query block: Observed TGI on SK-MEL-2 melanoma for CCCCC(=O)OCC1OC(n2cnc3c(=S)nc[nH]c32)C(OC(=O)CCCC)C1OC(=O)CCCC (centres undefined) , please.
Result block: > 78.7 µM

Query block: Given the entry C=C(C(=O)C(=O)Oc1ccc(Cl)cc1)C(=O)c1ccc(C)cc1 , what TGI was observed with SK-MEL-2 melanoma?
Result block: > 100 µM

Query block: Checklist item: TGI tested on SK-MEL-2 melanoma, entry COc1cnc2cc(C(=O)O)c3c([N+](=O)[O-])cccc3c2c1 , value?
Result block: > 100 µM

Query block: Field: TGI (SK-MEL-2 melanoma). Entry: Cc1ccc(-c2c3c([nH]c(=O)c2C#N)-c2cc(F)ccc2OC3)cc1
Result block: 98.4 µM

Query block: # query: TGI | item CCCCC/C(C=C(C#N)C#N)=C/c1ccccc1 | system: SK-MEL-2 melanoma
Result block: 41.3 µM

Query block: Param readout= TGI; system= SK-MEL-2 melanoma; entry= O=C(O)Cn1ccc(=O)c2ccc([N+](=O)[O-])cc21 ; returns value.
Result block: > 100 µM

Query block: Recall the recorded TGI for O=C1OCc2c1cc1ccc(O)c(OC3OC(CO)C(O)C(O)C3O)c1c2-c1ccc2c(c1)OCO2 (centres undefined) with SK-MEL-2 melanoma and state it.
Result block: > 100 µM

Query block: Form entry - test system: SK-MEL-2 melanoma; read-out: TGI; molecule: COCOC1/C=C/CCCC#C[C@H](C)C(=O)CC1 (some centres undefined)
Result block: 31.3 µM

Query block: Fill in the recorded TGI for this molecule, with SK-MEL-2 melanoma as test system: NC(=O)CNC(=O)C1CCCN1C(=O)C1CCCCNOC(=O)CC[C@@H](NC(=O)OCC2c3ccccc3-c3ccccc32)C(=O)NC(Cc2c[nH]c3ccccc23)C(=O)N1 (some centres undefined) (Fmoc-[dE][ξW][X34][ξP]G-NH2; ester 1-3)
Result block: > 100 µM

Query block: Form field: TGI recorded for O=C1/C(=C/c2ccc(Cl)cc2Cl)N=C(c2ccccc2)N1Cc1ccco1 with SK-MEL-2 melanoma (enter value)
Result block: 48.5 µM

Query block: // lookup TGI | system=SK-MEL-2 melanoma | key= COc1ccc2cc1Oc1ccc(cc1)CC1c3cc(c(OC)cc3CCN1C)Oc1c3c(cc4c1C(C2)N(C)CC4)OCO3 (centres undefined)
Result block: 15.8 µM

Query block: Give SK-MEL-2 melanoma TGI for c1ccc(C2C3=C(Nc4ncnn42)c2ccccc2C3)cc1 (centres undefined)
Result block: > 100 µM

Query block: Please tell me: TGI of CC(C)(C)c1ccc2c(c1)CNCCNCc1cc(C(C)(C)C)ccc1OCC1(CO2)COc2ccc(C(C)(C)C)cc2CNCCNCc2cc(C(C)(C)C)ccc2OC1 , system SK-MEL-2 melanoma?
Result block: 2.89 µM

Query block: Lab note: need TGI for O=c1nc(N2CCN(c3ccccc3)CC2)ccn1C1OC(CO)C(O)C1O (centres undefined) on SK-MEL-2 melanoma, anyone have it?
Result block: > 100 µM

Query block: So what TGI did CC(C)(N=NC(C)(C)C(=O)NCCO)C(=O)NCCO get with SK-MEL-2 melanoma?
Result block: > 100 µM

Query block: Form entry - test system: SK-MEL-2 melanoma; read-out: TGI; molecule: COC(=O)C(/C(=N/NC(N)=O)C(=O)Nc1ccc(C)cc1)c1nc2ccc([N+](=O)[O-])cc2[nH]c1=O (centres undefined)
Result block: > 100 µM

Query block: // fetch SK-MEL-2 melanoma TGI for O=c1[nH]n2c(=O)cc[nH]c2c1-c1nnns1
Result block: > 100 µM

Query block: Can you look up TGI on SK-MEL-2 melanoma for COC1C(CN[N+](=O)CC2OC3OC(C)(C)OC3C2OC)OC2OC(C)(C)OC21 (centres undefined) ?
Result block: > 100 µM

Query block: Form: Entry = C[C@@]12[C@H]3CC[C@@H]1[C@H](O)C(=O)N2CC3 | System = SK-MEL-2 melanoma | TGI = ____
Result block: > 100 µM

Query block: Form field - read-out: TGI; system: SK-MEL-2 melanoma; submitted item: Cc1c(F)c(N)c2c(=O)cc(-c3ccc(NC(=O)CN(C)C)c(F)c3)oc2c1F
Result block: > 100 µM

Query block: Report TGI for O=C(O)CC/C(=N\Nc1nsc2ccccc12)c1ccccc1 tested on SK-MEL-2 melanoma.
Result block: > 100 µM

Query block: Query the reported TGI for SK-MEL-2 melanoma; item: CCOC(=O)CCc1cc(=O)oc2cc(O)cc(O)c12
Result block: > 100 µM

Query block: Give SK-MEL-2 melanoma TGI for CN1C(=O)C2C(=O)N(Cc3ccccc3)CC(=O)N2c2cccnc21 (centres undefined)
Result block: > 100 µM

Query block: Notebook entry, SK-MEL-2 melanoma assay: TGI of CN(C)CCCOc1nc2c(c(=O)n(C)c(=O)n2C)n1C (tested in a mixture with another compound) = ?
Result block: > 100 µM

Query block: For SK-MEL-2 melanoma, provide TGI of Cc1nc2cccc([N+](=O)[O-])c2c(NCCCN(C)C)c1C please.
Result block: > 85.6 µM

Query block: Enter reported TGI observed with SK-MEL-2 melanoma for CN(C)CCCOC(=O)C(c1ccccc1)C1(O)CCSCC1 (centres undefined)
Result block: > 100 µM

Query block: Lookup: TGI / SK-MEL-2 melanoma / C=CCN1C(=O)/C(=C/c2ccccc2)N=C1SC1OC(COC(=O)c2ccccc2)C(OC(=O)c2ccccc2)C1OC(=O)c1ccccc1 (centres undefined)
Result block: > 100 µM

Query block: Request: TGI, test system SK-MEL-2 melanoma, entry COc1ccccc1N/C(=C\C(=O)C(=O)NC12CC3CC(CC(C3)C1)C2)c1ccccc1
Result block: > 10 µM

Query block: State its TGI on SK-MEL-2 melanoma: O=C(CC(=O)n1nc(-c2ccccc2)c(N=Nc2ccccc2C(=O)O)c1-c1ccccc1)Nc1ccc(Cl)cc1
Result block: > 100 µM

Query block: Give TGI (SK-MEL-2 melanoma) of the following molecule: N#CC1(Cc2ccc(N)cc2)c2ccccc2C=CN1C(=O)c1ccccc1 (centres undefined)
Result block: > 100 µM

Query block: Query TGI on SK-MEL-2 melanoma for O=C(N/N=C/c1ccccc1O)c1cccc([N+](=O)[O-])c1
Result block: > 100 µM

Query block: Any idea what TGI came out for C/C(CCOC1CCCCO1)=C(\C)[Si](C)(C)C (centres undefined) on SK-MEL-2 melanoma?
Result block: > 100 µM

These entries and their values trace back to PubChem BioAssay (NCI).
